These measurements were taken from ChEMBL document CHEMBL1201862.

The following molecules are shown together with reported EC50 values.
Measurement Notes: Luminescence Cell-Based Dose Response HTS to Identify Inhibitors of 5'UTR Stem-Loop Driven Prion Protein mRNA Translation in H4 Neuroglioblastoma Cells. [Related pubchem assays: 1827 (Project Summary), 1813 (Primary HTS)]
Format: functional
Calls of active or inactive are those of the source.
Quantity: EC50

INSERT INTO measurements (molecule, quantity, reported_value) VALUES
  ('CCCn1c(N2CCN(CC(=O)c3c(C)n(C)c4ccc(OC)cc34)CC2)nc2c1c(=O)[nH]c(=O)n2C', 'EC50', '13.5 µM (active)'),
  ('Cc1cc(C)cc(NC(=O)c2nnn(Cc3cc(C)ccc3C)c2N)c1', 'EC50', '39.8 µM (active)'),
  ('CCN(CC)CCn1cnc2c3c(OC)cccc3nc-2c1O', 'EC50', '> 120 µM (not active)'),
  ('CCOc1ccc(S(=O)(=O)N2CCC(C(=O)NCc3ccco3)CC2)cc1C', 'EC50', '> 120 µM (not active)'),
  ('CC(C)(C)c1cc[n+](C2=C([N-]S(=O)(=O)c3ccccc3)C(=O)c3ccccc3C2=O)cc1', 'EC50', '25 µM (active)'),
  ('CCCOC(=O)c1[nH]c2c(c1C)C(=O)CC(c1cccs1)C2 (stereo not drawn)', 'EC50', '1.01 µM (active)'),
  ('COc1ccc(NC(=O)CN(C)C(=O)c2cccc(S(=O)(=O)N3CCCc4ccccc43)c2)cc1', 'EC50', '> 120 µM (not active)'),
  ('Cn1c(=O)[nH]c(=O)c2c1nc(Sc1ncccn1)n2CCCc1ccccc1', 'EC50', '18.4 µM (active)');

###

The following molecules are shown together with reported AC50 values.
Tgt: DNA repair protein RAD52 homolog (Homo sapiens, UniProt P43351)
Sequence (P43351 whole entry): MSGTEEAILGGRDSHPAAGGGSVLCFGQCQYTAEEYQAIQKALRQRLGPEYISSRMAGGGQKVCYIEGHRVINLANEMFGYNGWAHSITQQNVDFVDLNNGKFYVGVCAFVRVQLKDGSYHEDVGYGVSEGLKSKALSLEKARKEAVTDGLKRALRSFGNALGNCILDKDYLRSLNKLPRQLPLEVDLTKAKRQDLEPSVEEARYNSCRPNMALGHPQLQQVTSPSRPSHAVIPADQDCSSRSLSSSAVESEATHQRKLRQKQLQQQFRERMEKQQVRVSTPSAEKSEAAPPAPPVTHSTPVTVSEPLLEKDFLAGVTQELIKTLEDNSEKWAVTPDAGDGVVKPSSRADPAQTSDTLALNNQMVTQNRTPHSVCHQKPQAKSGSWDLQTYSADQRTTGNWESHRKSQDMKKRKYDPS
Format: functional, biochemical
Active and inactive are the calls of the source.
Quantity: AC50

INSERT INTO assay_data (chemical_structure, quantity, reported_value) VALUES
  ('CCOc1cccc(=NC2CCCCC2)c2c(C)[nH]c(C)c12', 'AC50', '3.49 µM (active)'),
  ('Cc1cccc(-c2cc(N3CCCN(C)CC3)n3nccc3n2)c1', 'AC50', '2.45 µM (active)'),
  ('CN(C)CCCNc1nc2cc(-c3cccc(Cl)c3)sc2c(=O)n1C', 'AC50', '4.7 µM (active)'),
  ('O=C(/C=C/c1cn(-c2ccccc2)nc1-c1ccc2c(c1)OCCO2)NCCCN1CCOCC1', 'AC50', '16.1 µM (active)'),
  ('CCN1CCc2c(sc(NC(=O)c3cc4ccccc4cc3OC)c2C(N)=O)C1', 'AC50', '3.75 µM (active)'),
  ('COc1ccc(N2CCc3c(C)nc4c(OC)cc(OC)cc4c32)cc1', 'AC50', '3.96 µM (active)');
